assay: clinical; set-up: species or system human; details: human, in vivo, iv, 50 mg, AUC0–8
Positions of bridges follow the written chain, without caps; N, C: chain ends. Non-standard residues stand in square brackets, D forms with d. Residues, ends and D or L forms follow the SMILES beside them. *: point of attachment. X1 = NC[C@@H](CC(=O)*)c1cccc(Cl)c1; Dab = NCC[C@H](N)C(=O)O; Dap = NC[C@H](N)C(=O)O
reportedMetric: AUC(0-t) (ng·h/mL)
API: value field is a number in ng·h/mL; no unit string.

Exam item: # input molecule: CC(C)C[C@@H]1NC(=O)[C@@H](Cc2ccccc2)NC(=O)[C@H](CCN)NC(=O)[C@@H](NC(=O)[C@H](CN)NC(=O)[C@@H](NC(=O)C[C@H](CN)c2cccc(Cl)c2)[C@@H](C)O)CCNC(=O)[C@H]([C@@H](C)O)NC(=O)[C@H](CCN)NC(=O)[C@H](CCN)NC1=O [SPR206] (X1-T[Dap][Dab][Dab][dF]L[Dab][Dab]T; lactam 3-C (inferred)) ; wanted: its AUC(0-t)
Marked response: 9380

The origin of these recorded values is paper PMC8448162.
